assay: recombinant barcode read abundance after kanamycin selection (control-corrected) (log10(CPM+1)); higher = more efficient recombination; sequences stand for … in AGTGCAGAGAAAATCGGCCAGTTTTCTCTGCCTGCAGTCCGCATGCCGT…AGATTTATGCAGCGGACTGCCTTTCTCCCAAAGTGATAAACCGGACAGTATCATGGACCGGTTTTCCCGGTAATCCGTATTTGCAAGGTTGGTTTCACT; site = the 11-nt target
VALUE_TYPE: recombinant barcode read abundance (log10)
Numbers only.

Examples with answers:
> print(dat)
                                      chain  observed.result
1  TAGTACTCTTGGGTTCTAACCTGTTGCTG (site TAGTACTCTTA)           0.0609
2  GTGGAATCTTGGGTTCTAACCTGTTGCCT (site GTGAGATCTAG)            0.307
3  TACCGGACTTGGGTTCTAACCTGTTGCGT (site TACCGGCCTAA)           0.0831
4  GCGGGGTCTTGGGTTCTAACCTGTTGCCT (site CCGGGGTCTAG)            0.627
5  ACAGAGACTTGGGTTCTAACCTGTTGCAG (site ACGTAGACTCT)            0.113

// batch mode: one recombinant barcode read abundance (log10) value per listed entry
1. GCCTATTCTTGGGTTCTAACCTGTTGCGT (site TCCGATTCTAC)
2. TCTAATTCTTGGGTTCTAACCTGTTGCGT (site TCTGATTCTAC)

0.0523
0.899

// batch mode: one recombinant barcode read abundance (log10) value per listed entry
1. TTACGTCCTTGGGTTCTAACCTGTTGCGG (site TCACGTCCTCC)
2. GATCCATCTTGGGTTCTAACCTGTTGCCT (site GGTCCATCTAG)
3. ATTGGTCCTTGGGTTCTAACCTGTTGCAT (site ATTGCTCCTAG)

1. 1.31
2. 0.209
3. 0.364

###

Provide the reported recombinant barcode read abundance (log10) of each item.
assay: recombinant barcode read abundance after kanamycin selection (control-corrected) (log10(CPM+1)); higher = more efficient recombination; sequences stand for … in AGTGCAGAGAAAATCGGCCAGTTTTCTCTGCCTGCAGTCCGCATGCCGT…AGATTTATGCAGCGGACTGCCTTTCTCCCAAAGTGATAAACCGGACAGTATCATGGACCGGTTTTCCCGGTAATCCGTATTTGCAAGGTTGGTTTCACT; site = the 11-nt target
Give bare numbers.

Examples with answers:
> print(dat)
                                      chain  observed.result
1  CTCGGTGCTTGGGTTCTAACCTGTTGCCT (site CTCGGTGCTAG)             1.15
2  GAAAATCCTTGGGTTCTAACCTGTTGCCT (site GAAACTCCTAG)           0.0115

// batch mode: one recombinant barcode read abundance (log10) value per listed entry
1. GTGTCTCCTTGGGTTCTAACCTGTTGCAT (site GTGTCTCCTAT)
2. CATAACTCTTGGGTTCTAACCTGTTGCCT (site TATAACTCTAG)

[1.54, 0.0747]

Recorded recombinant barcode read abundance (log10) of TAGAAGTCTTGGGTTCTAACCTGTTGCAG (site TAGAAGTCTCT) , please. 1.9

###

assay: recombinant UMI read abundance after kanamycin selection (control-corrected) (log10(CPM+1)); higher = more efficient recombination; extreme values may be limits of the assay; sequences stand for … in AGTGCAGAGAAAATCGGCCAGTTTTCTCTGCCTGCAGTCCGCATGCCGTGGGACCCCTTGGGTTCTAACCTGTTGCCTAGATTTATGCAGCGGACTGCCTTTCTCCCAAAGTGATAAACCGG…AGGTTGGTTTCACT; site = the 11-nt donor
# label = condition met if recombinant UMI read abundance (log10) >= 0.004 else condition not met

Some solved entries appear below for comparison.
> print(dat)
                                      chain              group
1  CAAGCAGCATGGACCGGTTTTCCCGGTAATCCGTATTTGGT (site CAAGCAGCTAA)      condition met
2  AAACTTACATGGACCGGTTTTCCCGGTAATCCGTATTTGCA (site AAACTTACTTG)      condition met
3  GCGAATACATGGACCGGTTTTCCCGGTAATCCGTATTTGCT (site GCGAACACTAG)  condition not met
4  CAAGCTCCATGGACCGGTTTTCCCGGTAATCCGTATTTGTG (site CAAGCTCCTCA)      condition met
5  TGTCCACCATGGACCGGTTTTCCCGGTAATCCGTATTTGAC (site TGTCCACCTGT)  condition not met
6  ATAGCGACATGGACCGGTTTTCCCGGTAATCCGTATTTGCG (site ATAGCGACTCG)      condition met
7  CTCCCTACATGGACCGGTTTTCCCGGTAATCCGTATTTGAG (site CTCGCTACTCT)      condition met
8  GAGACGGCATGGACCGGTTTTCCCGGTAATCCGTATTTGAG (site GAGACGGCTCT)      condition met

Test whether the sequence CTGCATCCATGGACCGGTTTTCCCGGTAATCCGTATTTGTT (site CGGAATCCTAA) records recombinant UMI read abundance (log10) of 0.004 or higher. condition not met

Test whether the sequence CATTATGCATGGACCGGTTTTCCCGGTAATCCGTATTTGGA (site CATTATGCTTC) records recombinant UMI read abundance (log10) of 0.004 or higher. condition met

###

test: recombinant UMI read abundance after kanamycin selection (control-corrected) (log10(CPM+1)); higher = more efficient recombination; extreme values may be limits of the assay; sequences stand for … in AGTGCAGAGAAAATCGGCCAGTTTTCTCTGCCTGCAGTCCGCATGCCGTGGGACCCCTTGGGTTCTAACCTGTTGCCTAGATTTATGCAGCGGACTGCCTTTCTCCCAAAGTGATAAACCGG…AGGTTGGTTTCACT; site = the 11-nt donor
# label = YES if recombinant UMI read abundance (log10) >= 0.6 else NO

> print(dat)
                                      chain  group
1  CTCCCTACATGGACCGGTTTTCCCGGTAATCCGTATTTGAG (site CTCCCGACTCT)     NO
2  GATGTTGCATGGACCGGTTTTCCCGGTAATCCGTATTTGCT (site GATGTTGCTAG)    YES
3  GTGGAGGCATGGACCGGTTTTCCCGGTAATCCGTATTTGGG (site GTGGAGGCTCT)     NO
4  ATGTTCCCATGGACCGGTTTTCCCGGTAATCCGTATTTGTG (site ACGTTCCCTCA)     NO

Now, please, on to the next sequence.
Test whether the sequence TGGACTACATGGACCGGTTTTCCCGGTAATCCGTATTTGAC (site AGGACTACTGT) records recombinant UMI read abundance (log10) of 0.6 or higher. NO

###

assay: recombinant UMI read abundance after kanamycin selection (control-corrected) (log10(CPM+1)); higher = more efficient recombination; extreme values may be limits of the assay; sequences stand for … in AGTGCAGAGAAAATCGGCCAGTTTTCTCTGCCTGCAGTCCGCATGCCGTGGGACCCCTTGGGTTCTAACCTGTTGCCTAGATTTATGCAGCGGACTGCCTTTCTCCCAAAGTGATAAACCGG…AGGTTGGTTTCACT; site = the 11-nt donor
VALUE_TYPE: recombinant UMI read abundance (log10)
Answers are plain numbers.

Examples with answers:
> print(dat)
                                      chain  observed.result
1  GCCACCGCATGGACCGGTTTTCCCGGTAATCCGTATTTGCG (site ACCACCGCTCG)            0.439
2  TATTTGTCATGGACCGGTTTTCCCGGTAATCCGTATTTGTG (site TATTTGGCTCA)           0.0347
3  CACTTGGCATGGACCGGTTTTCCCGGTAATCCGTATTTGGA (site CACTTGGCTTC)             0.91
4  CGTGGATCATGGACCGGTTTTCCCGGTAATCCGTATTTGTT (site CGTGGATCTAA)             2.34

// batch mode: one recombinant UMI read abundance (log10) value per listed entry
1. CCCTTTACATGGACCGGTTTTCCCGGTAATCCGTATTTGCT (site CCTTTTACTAG)
2. CGGGAGTCATGGACCGGTTTTCCCGGTAATCCGTATTTGCT (site CGGGAGTCTGG)

0
2.26

###

assay: recombinant barcode read abundance after kanamycin selection (control-corrected) (log10(CPM+1)); higher = more efficient recombination; sequences stand for … in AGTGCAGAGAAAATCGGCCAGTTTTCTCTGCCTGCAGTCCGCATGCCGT…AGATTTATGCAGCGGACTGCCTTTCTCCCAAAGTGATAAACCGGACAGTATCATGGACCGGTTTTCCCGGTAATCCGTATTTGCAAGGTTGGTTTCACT; site = the 11-nt target
VALUE_TYPE: recombinant barcode read abundance (log10)

Examples with answers:
> print(dat)
                                      chain  observed.result
1  AAGGGGTCTTGGGTTCTAACCTGTTGCCT (site AAGGGGTCTAG)             2.93
2  TTAGACTCTTGGGTTCTAACCTGTTGCTA (site TTAGACTCTTG)             1.25
3  AAGCTGCCTTGGGTTCTAACCTGTTGCCT (site AAGCTGCCTAG)             1.49
4  ATAGACCCTTGGGTTCTAACCTGTTGCCT (site ATAGACCCTAG)             2.36
5  GCAGCCTCTTGGGTTCTAACCTGTTGCGT (site GCAGCCTCTAC)             2.08
6  GTTTCTTCTTGGGTTCTAACCTGTTGCCT (site GTTTCTTCTAG)           0.0189

// batch mode: one recombinant barcode read abundance (log10) value per listed entry
1. CTCCCAACTTGGGTTCTAACCTGTTGCCG (site CTCCCTACTCT)
2. AGTTCTCCTTGGGTTCTAACCTGTTGCCT (site CGTTCTCCTAG)
3. TGGTCCGCTTGGGTTCTAACCTGTTGCCT (site TGGTGCGCTAG)
4. CGTCGCACTTGGGTTCTAACCTGTTGCCT (site CGTCGCACTAG)
5. GACGGAGCTTGGGTTCTAACCTGTTGCTG (site GACGGGGCTCT)

1. 0.356
2. 0.415
3. 0.0483
4. 0.0318
5. 0.224

// batch mode: one recombinant barcode read abundance (log10) value per listed entry
1. TTGGGCACTTGGGTTCTAACCTGTTGCCT (site TTGGTCACTAG)
2. TCCCATACTTGGGTTCTAACCTGTTGCAT (site AGTGGACCTGG)
3. CAGGGGACTTGGGTTCTAACCTGTTGCCG (site CAAGGGACTCC)
4. TTGTACTCTTGGGTTCTAACCTGTTGCTT (site TTGTGTTCTAA)
5. ATCGTACCTTGGGTTCTAACCTGTTGCTG (site ATCCTACCTAA)
6. TAGTACCCTTGGGTTCTAACCTGTTGCAA (site TAGTACCCTTT)
7. GGATACACTTGGGTTCTAACCTGTTGCGT (site GGATAGACTAC)

[0.103, 0.2, 0.177, 0.0725, 0.167, 0.801, 0.0769]

// batch mode: one recombinant barcode read abundance (log10) value per listed entry
1. AGATCTCCTTGGGTTCTAACCTGTTGCGT (site TCGAAGTCTTA)
2. AGATGAGCTTGGGTTCTAACCTGTTGCGG (site AGATGAGCTCC)

[0.0154, 1.51]
